Where do these numbers come from? They come from ChEMBL document CHEMBL1131245.

molecular target: Amine oxidase [flavin-containing] A (Rattus norvegicus, UniProt P21396); experiment: Inhibitory concentration against monoamine oxidase A.
Sequence (P21396 whole entry): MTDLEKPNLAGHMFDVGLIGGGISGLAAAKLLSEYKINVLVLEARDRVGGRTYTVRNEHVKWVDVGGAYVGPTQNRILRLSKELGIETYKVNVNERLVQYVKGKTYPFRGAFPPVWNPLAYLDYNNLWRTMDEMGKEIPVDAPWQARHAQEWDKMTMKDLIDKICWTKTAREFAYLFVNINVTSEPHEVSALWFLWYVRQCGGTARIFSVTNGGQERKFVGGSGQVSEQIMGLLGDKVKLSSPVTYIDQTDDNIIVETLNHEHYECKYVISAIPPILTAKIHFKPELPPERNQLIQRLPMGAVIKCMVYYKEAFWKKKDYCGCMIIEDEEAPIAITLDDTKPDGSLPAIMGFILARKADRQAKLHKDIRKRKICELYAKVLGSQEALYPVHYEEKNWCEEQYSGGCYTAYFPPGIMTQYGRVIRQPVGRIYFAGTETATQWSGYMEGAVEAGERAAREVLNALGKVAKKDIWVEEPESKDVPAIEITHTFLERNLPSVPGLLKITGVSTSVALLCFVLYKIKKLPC
So basically, if IC50 comes in under 100 nM it's met, and if it's 100 nM or more it's not met.

1) O=S1(=O)c2ccccc2Oc2cccc(I)c21 met
2) CCc1cccc2c1S(=O)(=O)c1ccccc1O2 met
3) O=S1(=O)c2ccccc2Oc2cccc(CO)c21 not met
4) O=S1(=O)c2ccccc2Oc2cc(Br)ccc21 met
5) Cc1ccc2c(c1)Oc1ccccc1S2(=O)=O not met
6) CCc1cccc2c1S(=O)(=O)c1ccccc1C2=O not met
7) COc1ccc2c(c1)S(=O)(=O)c1ccccc1O2 not met
8) O=S1(=O)c2ccccc2Oc2cccc(C(F)(F)F)c21 met
9) Cc1cccc2c1Oc1ccccc1S2(=O)=O not met
10) CCc1cccc2c1Oc1ccccc1S2(=O)=O not met
11) COC(=O)C(=O)c1cccc2c1S(=O)(=O)c1ccccc1O2 not met
